Multi-source literature compilation: IC50 on PIK3CA (human) (UniProt P42336).

{"columns": ["molecule", "IC50"],
 "data": [
  ["Cn1cc(/C=C2\\Oc3ccc(C(=O)O)cc3C2=O)c2c(-c3ccccc3)ccnc21", "> 10000 nM"],
  ["Nc1nc2cccc(-c3ccc4ncc(C(=O)N5CCOCC5)n4c3)c2s1", "< 10000 nM"],
  ["Cc1nc2ccc(-c3ccc4c(c3)CN(C(=O)N3CCC(C)(F)CC3)CCO4)cc2[nH]1", "1000 to 3000 nM"],
  ["C[C@H](Nc1ncnn2ccnc12)c1cc2cccc(C(F)(F)F)c2c(=O)n1-c1ccccc1", "1000 to 10000 nM"],
  ["Cc1cc2c(=O)n(-c3ccccc3C)c(Cn3nc(Br)c4c(N)ncnc43)nc2s1", "> 10000 nM"]
]}

What the record says about "CCn1cnc2ccc(-c3ccc4oc(N)nc4c3)cc2c1=O" : IC50 is < 100 nM

According to the records, this molecule "Cc1ccccc1-n1c(Cn2nc(-c3ccc(O)cc3)c3c(N)ncnc32)cc2cccc(C)c2c1=O" displays IC50 of > 10000 nM

Value of measured IC50 for the entry "C/C=C/C(=O)N1CCC(n2c(C)nc3cnc4ccc(-c5cnc(N)c(C(F)(F)F)c5)nc4c32)CC1" : < 100 nM

Lookup result for "Cc1nc2cnc3ccc(-c4cnc(N)c(C(F)(F)F)c4)nc3c2n1C1CCN(Cc2ccccn2)CC1" ; measured IC50: < 100 nM

The molecule listed as CC1CN(C2CN(c3cnc4ccc(-c5ccc6oc(N)nc6c5)nc4n3)C2)CCO1 (stereo not shown) has a reported IC50 of < 1000 nM
